Lab note: pIC50 readings collected with Epidermal growth factor receptor (Homo sapiens, UniProt P00533) for the following compounds.
Sequence (P00533 whole entry): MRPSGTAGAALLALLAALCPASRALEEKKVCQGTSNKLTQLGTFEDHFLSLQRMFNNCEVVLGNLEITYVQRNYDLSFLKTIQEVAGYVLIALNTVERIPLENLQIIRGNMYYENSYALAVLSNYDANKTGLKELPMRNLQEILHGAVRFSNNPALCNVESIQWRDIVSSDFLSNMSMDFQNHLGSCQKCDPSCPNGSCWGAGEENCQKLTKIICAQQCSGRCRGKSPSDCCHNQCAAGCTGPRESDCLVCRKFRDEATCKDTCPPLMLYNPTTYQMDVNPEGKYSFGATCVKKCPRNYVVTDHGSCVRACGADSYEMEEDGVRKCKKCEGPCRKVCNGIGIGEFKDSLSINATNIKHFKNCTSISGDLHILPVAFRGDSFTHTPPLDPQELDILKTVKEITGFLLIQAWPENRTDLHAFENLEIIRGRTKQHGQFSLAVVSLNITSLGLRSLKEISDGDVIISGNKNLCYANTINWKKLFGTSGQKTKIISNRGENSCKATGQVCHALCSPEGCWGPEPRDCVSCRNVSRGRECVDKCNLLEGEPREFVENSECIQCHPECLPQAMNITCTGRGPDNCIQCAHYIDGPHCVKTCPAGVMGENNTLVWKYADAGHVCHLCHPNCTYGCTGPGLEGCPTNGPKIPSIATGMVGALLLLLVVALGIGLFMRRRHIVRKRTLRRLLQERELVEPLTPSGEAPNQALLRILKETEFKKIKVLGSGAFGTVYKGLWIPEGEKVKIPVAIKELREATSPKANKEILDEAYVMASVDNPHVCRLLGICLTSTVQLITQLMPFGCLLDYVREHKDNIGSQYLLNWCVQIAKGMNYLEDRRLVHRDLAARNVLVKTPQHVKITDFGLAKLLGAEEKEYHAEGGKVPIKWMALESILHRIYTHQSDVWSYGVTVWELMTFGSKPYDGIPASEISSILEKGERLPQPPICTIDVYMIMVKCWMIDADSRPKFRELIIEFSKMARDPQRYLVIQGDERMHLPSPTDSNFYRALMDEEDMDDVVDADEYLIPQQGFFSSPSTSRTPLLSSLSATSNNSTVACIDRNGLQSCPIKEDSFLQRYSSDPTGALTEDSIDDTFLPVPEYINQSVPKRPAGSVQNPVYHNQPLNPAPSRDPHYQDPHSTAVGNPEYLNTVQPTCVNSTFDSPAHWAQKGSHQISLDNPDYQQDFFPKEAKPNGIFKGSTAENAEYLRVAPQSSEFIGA
Conceptually, pIC50 converts a concentration in mol/L into minus its log10.

Reference set (2 entries):
c1ccc(Nc2ncnc3n[nH]c(Nc4ccccc4)c23)cc1 :: 7.24
Clc1cccc(Nc2[nH]cnc3nnc(-c4ccccc4)c2-3)c1 :: 7.72

Field: next compound
// query Provide value of pIC50 for this record tested with Epidermal growth factor receptor (Homo sapiens, UniProt P00533): "Nc1cccc(-c2[nH]nc3ncnc(Nc4cccc(Cl)c4)c23)c1"
// result 8.30

* * *

# subject_of_test: Epidermal growth factor receptor (Homo sapiens)
# test_name: Inhibition of EGF-stimulated tyrosine phosphorylation in A431 cells.
pIC50: −log10 of the molar value.
# label = Fulfilled if pIC50 >= 6 else Not fulfilled

COc1cccc(CNc2[nH]nc3ncnc(Nc4cccc(Cl)c4)c23)c1 :: Fulfilled

// query Determine whether measured pIC50 meets or exceeds 6 for "Cc1cccc(Nc2ncnc3[nH]nc(Nc4cccc(Cl)c4)c23)c1"
// result Fulfilled

// query Check the entry "Clc1cccc(Nc2ncnc3n[nH]c(Nc4cccc(Cl)c4)c23)c1" : does pIC50 equal or exceed 6?
// result Fulfilled

// query Would you say "Nc1nc(N)c2c(Nc3cccc(Cl)c3)[nH]nc2n1" shows pIC50 at minimum 6?
// result Not fulfilled

// query Check if pIC50 >= 6 (inclusive). Item: "Clc1cccc(Nc2[nH]cnc3nnc(-c4ccccc4)c2-3)c1"
// result Fulfilled

// query Does "c1ccc(Nc2ncnc3n[nH]c(Nc4ccccc4)c23)cc1" have a reported pIC50 of at least 6?
// result Not fulfilled

// query For this compound, is measured pIC50 6 or higher? "Oc1ccc(Nc2[nH]nc3ncnc(Nc4cccc(Cl)c4)c23)cc1"
// result Fulfilled

* * *

# subject_of_test: Proto-oncogene tyrosine-protein kinase Src (Homo sapiens, UniProt P12931)
# Sequence (P12931 2-536 limits assumed): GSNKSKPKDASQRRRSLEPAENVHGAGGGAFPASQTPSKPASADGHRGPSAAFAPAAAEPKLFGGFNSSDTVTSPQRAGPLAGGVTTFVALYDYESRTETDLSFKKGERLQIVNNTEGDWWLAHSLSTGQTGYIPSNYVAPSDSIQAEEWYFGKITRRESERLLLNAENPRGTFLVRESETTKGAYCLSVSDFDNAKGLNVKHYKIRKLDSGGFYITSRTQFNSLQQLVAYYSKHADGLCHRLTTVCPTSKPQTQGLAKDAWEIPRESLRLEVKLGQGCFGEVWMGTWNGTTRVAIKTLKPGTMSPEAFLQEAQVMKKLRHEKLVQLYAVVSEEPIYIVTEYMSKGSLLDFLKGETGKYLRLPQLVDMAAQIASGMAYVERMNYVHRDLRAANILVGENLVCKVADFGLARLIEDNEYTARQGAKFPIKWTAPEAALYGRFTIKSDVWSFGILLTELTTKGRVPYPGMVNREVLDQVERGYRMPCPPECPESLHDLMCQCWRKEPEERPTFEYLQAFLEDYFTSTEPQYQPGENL
# test_name: Inhibition of c-Src tyrosine kinase
experimental_readout: IC50

Clc1cccc(Nc2[nH]nc3ncnc(Nc4cccc(Br)c4)c23)c1 :: > 10 µM

// query // IC50 lookup, key: "Cc1cccc(Nc2ncnc3[nH]nc(Nc4cccc(Cl)c4)c23)c1"
// result 8.08 µM

// query Field request: IC50 | item: "Clc1cccc(Nc2[nH]cnc3nnc(-c4ccccc4)c2-3)c1"
// result > 10 µM

* * *

# subject_of_test: Proto-oncogene tyrosine-protein kinase Src (Homo sapiens, UniProt P12931)
# test_name: Inhibitory activity against c-Src tyrosine kinase
pIC50: −log10 of the molar value.
Quick rule: pIC50 of at least 6 means Y, below that means N.

Reference set, count: 3
c1ccc(Nc2ncnc3n[nH]c(Nc4ccccc4)c23)cc1 :: N
Nc1[nH]cnc2nnc(Nc3cccc(Cl)c3)c1-2 :: N
Nc1ccc(-c2[nH]nc3ncnc(Nc4cccc(Cl)c4)c23)cc1 :: N

Moving on to another molecule below.
// query Hello, I need to know if "Oc1ccc(Nc2[nH]nc3ncnc(Nc4cccc(Cl)c4)c23)cc1" has measured pIC50 not below 6. Thanks!
// result Y

* * *

# subject_of_test: Protein kinase C alpha type (Homo sapiens, UniProt P17252)
pIC50: −log10 of the molar value.
Measured pIC50 of individual entries

Here's what some known entries look like.
Clc1cccc(Nc2[nH]nc3ncnc(Oc4cccc(Cl)c4)c23)c1 :: < 4.00
CC(C)(C)OC(=O)Nc1ccc(Nc2[nH]nc3ncnc(Nc4cccc(Cl)c4)c23)cc1 :: < 5.00

// query Give pIC50 (Protein kinase C alpha type (Homo sapiens, UniProt P17252)) of the following compound: "Oc1cccc(-c2[nH]nc3ncnc(Nc4cccc(Cl)c4)c23)c1"
// result < 5.00

// query // lookup pIC50 | system=Protein kinase C alpha type (Homo sapiens, UniProt P17252) | key= "Clc1cccc(CNc2[nH]nc3ncnc(Nc4cccc(Cl)c4)c23)c1"
// result < 5.00

FYI, the data here is from ChEMBL document CHEMBL1130217.
